experiment summary: Pharmacokinetic study of paclitaxel with oral type I POPs
Type: in vivo, Sprague–Dawley rats
applied conditions: Sprague-Dawley, rat, plasma, intravenous
assay metric: half-life
Put down the number, then write its unit next to it.

[ask] Reported half-life, molecule "CC(=O)O[C@H]1C(=O)[C@@]2(C)[C@H]([C@H](OC(=O)c3ccccc3)[C@]3(O)C[C@H](OC(=O)[C@H](O)[C@@H](NC(=O)c4ccccc4)c4ccccc4)C(C)=C1C3(C)C)[C@]1(OC(C)=O)CO[C@@H]1C[C@@H]2O" : ____
[reply] 4.2 h
